// pKd lookup, one value per entry
Molecular target: T1, purified GmRLK18-1 LRR domain (6x his-RHG1) (Glycine max)
T1 chain: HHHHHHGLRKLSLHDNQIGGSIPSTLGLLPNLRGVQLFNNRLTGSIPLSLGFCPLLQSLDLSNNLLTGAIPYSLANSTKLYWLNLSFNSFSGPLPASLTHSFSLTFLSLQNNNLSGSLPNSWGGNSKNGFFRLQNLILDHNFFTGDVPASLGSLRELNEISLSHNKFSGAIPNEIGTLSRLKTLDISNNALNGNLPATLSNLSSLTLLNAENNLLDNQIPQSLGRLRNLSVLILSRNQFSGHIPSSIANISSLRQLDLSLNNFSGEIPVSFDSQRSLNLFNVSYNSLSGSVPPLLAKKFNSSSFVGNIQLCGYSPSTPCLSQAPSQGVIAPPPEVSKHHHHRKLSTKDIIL
Assay: fluorescence (luminescence spectrometry) titration of peptide with purified LRR domain, in vitro
pKd: −log10 of the molar value.
Parameter: pKd

| Binder | Reported measurement |
| --- | --- |
| SKRRVPNGPDPIHNR (modifications not checked) [peptide 36 (GmCLE34, AtCLE36, MtCLE36)] | 7.85 |
| KRLSPSGPDPHHH (modifications not checked) [peptide N (HgCLV3)] | 7.52 |
| RTVPSGPDPLHH (modifications not checked) [peptide 3 (GmCLE3, AtCLE3, AtClv3 unmodified)] | 7.54 |
| RLAPGGPDPQHN (modifications not checked) [peptide 2 (GmNIC1, LjCLE-R2 and LjCLE-R1)] | 7.35 |
